Could you please report measured melting point for the items listed next?

[in] Please give the measured melting point for this compound: `CCOC(=O)c1ccc2c(c(C)nn2C)c1C#N`
[out] 170 to 176 °C

[in] Look up melting point for this compound: O=C(O)CN1C(=O)C(=Cc2ccc(OCCc3ccccc3)c(OC(c3ccccc3)C(F)(F)F)c2)SC1=S (stereo unspecified)
[out] 168 °C

[in] Which measured melting point value corresponds to CC(C)(Cc1c[nH]c2ccccc12)NCC(O)COc1ccccc1C#N (stereo unspecified) ?
[out] 120 to 123 °C

[in] What value of measured melting point is listed for N#Cc1ccccc1OCC(O)CN1CCN(c2ncccc2F)CC1 (stereo unspecified) ?
[out] 68 to 70 °C

[in] What does the record list as melting point for CC1CC(=O)c2cc(F)ccc2S1(=O)=O (stereo unspecified) ?
[out] 113 to 114 °C

[in] Recorded melting point for `CCOCC(=O)Nc1c(NCCNC(=O)OC(C)(C)C)c(C)c(C)n2nnnc12` , please?
[out] 138 to 142 °C

[in] Quick check: melting point of `CCCCc1ncc(/C=C(\Cc2cccs2)C(=O)O)n1Cc1ccc(O)c(C)c1` ?
[out] 150 to 152 °C

[in] So what does the record say about melting point for `CNC(=O)ON=C1SCC(=O)N1CCOC` ?
[out] 153 to 155 °C

[in] Please look up its melting point: `CCOc1cc(CCNC(=S)Nc2nccs2)ccc1OC`
[out] 150 to 152 °C

[in] Given the compound `COc1ccc(C(=O)c2ccc(F)cc2F)c(Cl)c1Cl` , what is its reported melting point?
[out] 139 to 141 °C

[in] Item `O=C1NC(=S)SC1=Cc1cccc(OCc2ccc(C(=O)c3ccccc3)cc2)c1` has what recorded melting point?
[out] 212 to 214 °C

[in] Requested field: melting point. Item: `Nc1nc(F)nc(OC(F)(F)F)n1`
[out] 138 to 139 °C

[in] Sample `Cc1c(CCCl)c(=O)oc2cc(O)cc(O)c12` — what was its melting point?
[out] 218 to 220 °C

[in] // melting point lookup, key: CC(=O)OCC1=C(C(=O)OC(c2ccccc2)c2ccccc2)N2C(=O)C(NC(=O)Cc3csc(-c4ncccc4O)n3)C2SC1 (stereo unspecified)
[out] 176 to 178 °C

[in] Which melting point is reported for this compound? `COc1ccc(N2CCN(NC(=S)NCC(OC)OC)CC2)cc1`
[out] 157 °C

[in] Which melting point is reported for this compound? COC(=O)C=CCC1C(=O)N2C(C(=O)OCC(Cl)(Cl)Cl)=CCC12 (stereo unspecified)
[out] 101 to 102 °C

[in] So what's the measured melting point for this one? `O=C(c1cc2cc3[nH]c(=O)oc3cc2[nH]1)N1CCC(OCc2ccccc2)CC1`
[out] 258 to 261 °C

[in] Request the reported melting point associated with CCc1ccc(C2COc3c(C)c(C)c(NC(=O)CC(C)(C)C)c(C)c32)cc1 (stereo unspecified)
[out] 162 to 163 °C

[in] Please report the recorded melting point for `C=CCc1c(O)ccc2c(C)cc(=O)oc12` .
[out] 192 to 195 °C

[in] Which melting point reading was recorded for the compound `O=C(O)c1cc(=O)c2cc(F)ccc2o1` ?
[out] 261 to 262 °C

[in] Field request: melting point | item: `COc1cc2c(cc1OCc1ccccc1)CCCNC2=O`
[out] 192 to 193 °C
